# Method Summary: qHTS for Inhibitors of human tyrosyl-DNA phosphodiesterase 1 (TDP1): qHTS in cells in presence of CPT; note: nearly all actives have a fitted effect of over 55% in size
# Applied Conditions: chicken DT40 Tdp1-/-;hTDP1 cells + 20 nM CPT, ATP luminescence, 48 h; series mostly up to 46.2 µM
Out of some 420,000 compounds screened, about 50,000 (12%) were called active. Roughly 26% stayed inconclusive and do not appear here. Calls come from the whole dose curve; as a rule, active = well fitted inhibition curve with a large enough effect; inconclusive = small, poorly fitted or top-dose-only effect; inactive = flat fitted curve, though single readings scatter. Shown is part of a subset that was picked to be rich in actives.
Write down the outcome that applies. Available outcomes: active, inactive

CCOC(=O)C(C)Sc1nc2ccccc2c(=O)n1CC1CCCCC1 (configuration not stated); active

Incoming: Name the outcome recorded for Cc1ccc(S(=O)(=O)N2CCCCC2)cc1C(=O)N1CCN(CCO)CC1 in the assay.
Outgoing: inactive

Incoming: Answer briefly: the call reported for CCOC(=O)c1cccc(NC(=O)CN2C(=O)C3CC=CCC3C2=O)c1 (configuration not stated) in this assay.
Outgoing: inactive

Incoming: What classification did Cc1cccc(N=Nc2c(O)[nH]c3ccc(F)cc23)c1 end up with in this test?
Outgoing: inactive

Incoming: Assay outcome for CCCCCc1ccc(-c2cn(Cc3ccc4ccccc4c3)nn2)cc1 : what was it?
Outgoing: inactive

Incoming: Record lookup: outcome of this test for Cc1cccc(NC(=O)c2cccc(C(=O)Nc3cccc(C)c3C)n2)c1C ?
Outgoing: inactive

Incoming: What is the recorded call for this compound in the test? CCc1ccc(N2CC(C(=O)Nc3ccc(S(=O)(=O)Nc4nccs4)cc3)CC2=O)cc1 (configuration not stated)
Outgoing: inactive

Incoming: Outcome? COc1ccccc1/C=N\Nc1cc(C)nc(-n2nc(C)cc2C)n1
Outgoing: active

Incoming: Outcome? COc1ccc(Cl)cc1-n1c(=S)sc2c(=O)n(-c3ccc(F)cc3)c(SCC(=O)O)nc21
Outgoing: inactive

Incoming: Lab log entry: CCN(C[C@H]1N[C@@](CC)(C(=O)OC)[C@H]2C(=O)N(C)C(=O)[C@@H]12)C(=O)Nc1ccc(F)cc1 — outcome as called in the assay?
Outgoing: inactive

###

# Method Summary: qHTS for Inhibitors of human tyrosyl-DNA phosphodiesterase 1 (TDP1): qHTS in cells in presence of CPT; note: nearly all actives have a fitted effect of over 55% in size
# Applied Conditions: chicken DT40 Tdp1-/-;hTDP1 cells + 20 nM CPT, ATP luminescence, 48 h; series mostly up to 46.2 µM
Hit rate of the full screen: of about 420,000 compounds, about 50,000 (12%) were called active. Not shown: some 26% with an inconclusive outcome. The full list was thinned out, with actives kept by preference.
Metric: outcome

CC(C)NS(=O)(=O)c1ccc(CCC(=O)N2CCOCC2)cc1; inactive
Cn1c(CNC(=O)c2ccco2)nnc1SCC(=O)N1CCN(c2ccccc2)CC1; inactive
Cc1ccc(S(=O)(=O)NCCC(c2ccccc2)c2ccccc2)cc1C(=O)O; inactive

###

# Method Summary: qHTS for Inhibitors of human tyrosyl-DNA phosphodiesterase 1 (TDP1): qHTS in cells in presence of CPT; note: nearly all actives have a fitted effect of over 55% in size; note: potency is the fitted concentration of half-maximal effect
# Applied Conditions: chicken DT40 Tdp1-/-;hTDP1 cells + 20 nM CPT, ATP luminescence, 48 h; series mostly up to 46.2 µM
Among all 420,000 compounds or so, about 50,000 (12%) were called active. Another 26% or so got no clear call; they are omitted. The list comes from a sample in which actives are over-represented; it also holds close analogues and randomly drawn compounds.
Metric: Potency

These solved cases illustrate the format of a correct answer.
Cc1ccc(S(=O)(=O)N(C)C)cc1NC(=O)C1Cc2ccccc2CN1C(=O)c1ccco1 (configuration not stated); inactive
NC(=O)c1ncc(C(F)(F)F)cc1Oc1ccc(F)cc1; inactive
Cc1ccc2oc(C(=O)N3CCN(C)C[C@@H]3C(C)C)c(C)c2c1; inactive
O=C(CSc1ncnc2c1oc1ccccc12)NC1CCCC1; inactive
CCOc1ccc(CN2CCN(Cc3c[nH]c4ccccc34)CC2)cc1; 3.66 µM (active)
CCN(CC)S(=O)(=O)c1ccc(N2CCCC2)c(NC(=O)c2ccc([N+](=O)[O-])o2)c1; 23.1 µM (active)

Here is another compound to look at.
// recorded Potency for CCN(CC)S(=O)(=O)c1ccc(N2CCOCC2)c(C(=O)O)c1 : inactive
